Where a SMILES comes first, the peptide text is derived from it. [ ]: non-standard residue; d: D form. MeBmt = C/C=C/C[C@@H](C)[C@@H](O)[C@H](NC)C(=O)O; NMeL = CN[C@@H](CC(C)C)C(=O)O; NMeV = CN[C@H](C(=O)O)C(C)C; NMeA = CN[C@@H](C)C(=O)O; dNMeA = CN[C@H](C)C(=O)O; Abu = CC[C@H](N)C(=O)O; Sar = CNCC(=O)O
The next entries give measured IC50 for Cyclophilin A (Homo sapiens, UniProt P62937).

- C/C=C/C[C@@H](C)[C@@H](O)[C@H]1C(=O)N[C@@H](CC)C(=O)N(C)CC(=O)N(C)[C@@H](C)C(=O)N[C@@H](C(C)C)C(=O)N(C)[C@@H](C)C(=O)N[C@@H](C)C(=O)N[C@H](C)C(=O)N(C)[C@@H](CC(C)C)C(=O)N(C)[C@@H](CC(C)C)C(=O)N(C)[C@@H](C(C)C)C(=O)N1C [Compound C2] (cyclo([MeBmt][Abu][Sar][NMeA]V[NMeA]A[dA][NMeL][NMeL][NMeV])): < 2000 nM
- C/C=C/C[C@@H](C)[C@@H](O)[C@H]1C(=O)N[C@@H](CC)C(=O)N(C)CC(=O)N(C)[C@H](C)C(=O)N[C@@H](C(C)C)C(=O)N(C)[C@@H](CC(C)C)C(=O)N[C@@H](CC)C(=O)N[C@H](C)C(=O)N(C)[C@@H](CC(C)C)C(=O)N(C)[C@@H](CC(C)C)C(=O)N(C)[C@@H](C(C)C)C(=O)N1C [Compound C95] (cyclo([Abu][Sar][dNMeA]V[NMeL][Abu][dA][NMeL][NMeL][NMeV][MeBmt])): < 2000 nM

Let's switch to this compound now.
Exercise: Fetch value of IC50 on Cyclophilin A (Homo sapiens, UniProt P62937) for C/C=C/C[C@@H](C)[C@@H](O)[C@H]1C(=O)N[C@@H](CC)C(=O)N(C)CC(=O)N(C)[C@@H](CC(C)C)C(=O)N[C@@H](C(C)C)C(=O)N(C)[C@@H](C)C(=O)N[C@@H](CC(C)C)C(=O)N[C@H](C)C(=O)N(C)[C@@H](CC(C)C)C(=O)N(C)[C@@H](CC(C)C)C(=O)N(C)[C@@H](C(C)C)C(=O)N1C [Compound C86] (cyclo([MeBmt][Abu][Sar][NMeL]V[NMeA]L[dA][NMeL][NMeL][NMeV])) .
Sequence (P62937 whole entry, species assumed): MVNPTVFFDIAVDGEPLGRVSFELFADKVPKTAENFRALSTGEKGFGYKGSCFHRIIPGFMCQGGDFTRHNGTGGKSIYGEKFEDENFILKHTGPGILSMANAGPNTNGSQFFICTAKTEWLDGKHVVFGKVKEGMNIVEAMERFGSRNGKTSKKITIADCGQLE
Key: < 2000 nM

----------
Below is a list of entries, each paired with its recorded % inhibition of CsA binding to Cyclophilin A value.
target: Cyclophilin A (Homo sapiens, UniProt P62937); construct: made in house; test: AlphaLISA inhibition of binding of biotinylated Cyclosporin A to FLAG tagged Cyclophilin A; details: test concentration not given
Where a SMILES comes first, the peptide text is derived from it. [ ]: non-standard residue; d: D form. MeBmt = C/C=C/C[C@@H](C)[C@@H](O)[C@H](NC)C(=O)O; NMeT = CN[C@H](C(=O)O)[C@@H](C)O; NMeL = CN[C@@H](CC(C)C)C(=O)O; NMeV = CN[C@H](C(=O)O)C(C)C; Abu = CC[C@H](N)C(=O)O; Sar = CNCC(=O)O
Report the value in % with no unit label.

* C/C=C/C[C@@H](C)[C@@H](O)[C@H]1C(=O)N[C@@H](CC)C(=O)N(C)CC(=O)N(C)[C@@H](C(C)C)C(=O)N[C@@H](C(C)C)C(=O)N(C)[C@@H](CC(C)C)C(=O)N[C@@H](CC(C)C)C(=O)N[C@H](C)C(=O)N(C)[C@@H](CC(C)C)C(=O)N(C)[C@@H](CC(C)C)C(=O)N(C)[C@@H](C(C)C)C(=O)N1C [Compound C53] (cyclo([MeBmt][Abu][Sar][NMeV]V[NMeL]L[dA][NMeL][NMeL][NMeV])) | 100.01

Let's switch to this molecule now.
Exercise: Fetch value of % inhibition of CsA binding to Cyclophilin A on Cyclophilin A (Homo sapiens, UniProt P62937) for C/C=C/C[C@@H](C)[C@@H](O)[C@H]1C(=O)N[C@@H](CC)C(=O)N(C)CC(=O)N(C)[C@@H]([C@@H](C)O)C(=O)N[C@@H](C)C(=O)N(C)CC(=O)N[C@@H](C)C(=O)N[C@H](C)C(=O)N(C)[C@@H](CC(C)C)C(=O)N(C)[C@@H](CC(C)C)C(=O)N(C)[C@@H](C(C)C)C(=O)N1C [Compound C23] (cyclo([MeBmt][Abu][Sar][NMeT]A[Sar]A[dA][NMeL][NMeL][NMeV])) .
Key: 98.72
